A short record of pKi observed with CDK activating kinase (CAK) from Candida albicans (Candida albicans, UniProt A0A1D8PH53) follows.
Sequence (A0A1D8PH53 entry or part of it): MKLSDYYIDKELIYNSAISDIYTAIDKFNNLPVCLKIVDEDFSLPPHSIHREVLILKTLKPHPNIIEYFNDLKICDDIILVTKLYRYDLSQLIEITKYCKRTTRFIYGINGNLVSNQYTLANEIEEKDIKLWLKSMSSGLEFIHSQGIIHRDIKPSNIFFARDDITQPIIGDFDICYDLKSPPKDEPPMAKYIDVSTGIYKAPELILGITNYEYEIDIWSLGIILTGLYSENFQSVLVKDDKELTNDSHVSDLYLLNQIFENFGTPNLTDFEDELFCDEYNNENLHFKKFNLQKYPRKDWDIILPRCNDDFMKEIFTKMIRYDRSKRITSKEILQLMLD
pKi: −log10 of the molar value.
result type: pKi

Take a look at these entries with their results.
- compound: "N#Cc1c(N)c(C(=O)c2cccc(Cl)c2)n2ccccc12 [Compound 3]"
  measured result: 6.54
- compound: "N#Cc1c(N)c(C(=O)c2cccc(I)c2)n2ccccc12 [Compound 1]"
  measured result: 7.22
- compound: "COc1ccccc1C(=O)c1c(N)c(C#N)c2ccccn12 [Compound 7]"
  measured result: 6.03

a. N#Cc1c(N)c(C(=O)c2ccc(Cl)cc2)n2ccccc12 [Compound 9]
b. COc1ccc(C(=O)c2c(N)c(C#N)c3ccccn23)cc1 [Compound 12]
Lookup: // which entry reports the smaller pKi, a or b ? Which one? Tell me its label.
Found: b
(b: 5.62, a: 5.89)
